B1: FAM164C (parent)
chain: YPHCTGISQQDPESDSQGQGNGLF

Variants of: B1
runDescription: protein stability index of a GFP-peptide fusion (GPS, HEK-293T) (PSI 1-6); higher = more stable;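 note: lentivirally expressed fusions sorted by FACS into six bins by GFP to DsRed ratio, PSI derived from sequencing read proportions per bin multiplied by bin number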
testParameters: c terminus: a fixed tail appended
property: protein stability index

> print(dat)
                       sequencetext                 property  assayvalue
 1   YPHCTGISEQDPESDSQGQGNGLF [Q9E]  protein stability index        3.89
 2   YPHCTCISQQDPESDSQGQGNGLF [G6C]  protein stability index        2.46
 3   YPHCTGISWQDPESDSQGQGNGLF [Q9W]  protein stability index        2.48
 4   YPHCTGICQQDPESDSQGQGNGLF [S8C]  protein stability index        3.11
 5  YPHCTGISQQDPESDSQGQGNDLF [G22D]  protein stability index        4.03
 6   YPWCTGISQQDPESDSQGQGNGLF [H3W]  protein stability index        3.22
 7  YPHCTGISQQDPWSDSQGQGNGLF [E13W]  protein stability index         1.9
 8  YPHCTGISQQDPESDSQGQGNYLF [G22Y]  protein stability index        3.03
 9  YPHCTGISQQDPQSDSQGQGNGLF [E13Q]  protein stability index        3.31
10  YPHCTGISQQDPESDSPGQGNGLF [Q17P]  protein stability index         3.6
11  YPHCTGISQQDPESDSQGQGNLLF [G22L]  protein stability index        2.87
12  YPHCTGISQQDPESDSQGQRNGLF [G20R]  protein stability index        3.65
13   YPHCTGISKQDPESDSQGQGNGLF [Q9K]  protein stability index        3.42
14   YPHCTGISSQDPESDSQGQGNGLF [Q9S]  protein stability index        3.97
15   YPHCTGTSQQDPESDSQGQGNGLF [I7T]  protein stability index        3.95
16  YPHCTGISQQDPEWDSQGQGNGLF [S14W]  protein stability index        3.13
17  YPHCTGISQQDFESDSQGQGNGLF [P12F]  protein stability index        3.56
18  YPHCTGISQQDPESDSQGQGNGMF [L23M]  protein stability index        4.21
19  YPHCTGISQQDPESDSQGQGHGLF [N21H]  protein stability index        3.75
20  YPHCTGISQQDPESDLQGQGNGLF [S16L]  protein stability index        2.74
21  YPHCTGISQQDPEQDSQGQGNGLF [S14Q]  protein stability index        3.93
22  YPHCTGISQQDPYSDSQGQGNGLF [E13Y]  protein stability index        2.97
